Test system: Human immunodeficiency virus 1
METHOD: Effective antiviral concentration against HIV-1 infected CEM-SS cells
Assay type: functional, organism-based
ASSAY CONDITIONS: Human immunodeficiency virus 1, CEM-SS
pEC50: −log10 of the molar value.
Each record here notes measured pEC50.
QUANTITY MEASURED: pEC50

CC(=O)NS(=O)(=O)c1ccc(NC(=O)c2ccccc2SC(=O)c2ccccc2)cc1 :: 5.59
Cc1ccnc(NS(=O)(=O)c2ccc(-n3sc4ccccc4c3=O)cc2)n1 :: 5.06
Cc1cc(NS(=O)(=O)c2ccc(NC(=O)c3ccccc3SSc3ccccc3C(=O)Nc3ccc(S(=O)(=O)Nc4cc(C)on4)cc3)cc2)no1 :: 5.72
CC(=O)NS(=O)(=O)c1ccc(-n2sc3ccccc3c2=O)cc1 :: 4.90
NS(=O)(=O)c1ccc(Cn2sc3ccccc3c2=O)cc1 :: 4.86
Nc1cccc(S(=O)(=O)c2cccc(NC(=O)c3ccccc3SSc3ccccc3C(=O)Nc3cccc(S(=O)(=O)c4cccc(N)c4)c3)c2)c1 :: 6.00
COc1ccc(C(=O)Nc2ccc(S(=O)(=O)c3ccc(NC(=O)c4ccccc4SSc4ccccc4C(=O)Nc4ccc(S(=O)(=O)c5ccc(NC(=O)c6ccc(OC)cc6)cc5)cc4)cc3)cc2)cc1 :: 5.42
NS(=O)(=O)c1ccc(CNC(=O)c2ccccc2SSc2ccccc2C(=O)NCc2ccc(S(N)(=O)=O)cc2)cc1 :: 6.48

---

System: Human immunodeficiency virus 1
METHOD: Effective antiviral concentration against HIV-1 infected CEM-SS cells
Assay type: functional, organism-based
ASSAY CONDITIONS: Human immunodeficiency virus 1, CEM-SS
pEC50: −log10 of the molar value.
Each record here notes measured pEC50.
QUANTITY MEASURED: pEC50

O=C(NS(=O)(=O)c1ccc(-n2sc3ccccc3c2=O)cc1)c1ccccc1 :: 5.03
CC(=O)Nc1ccc(S(=O)(=O)Nc2ccc(S(=O)(=O)c3ccc(NC(=O)c4ccccc4SSc4ccccc4C(=O)Nc4ccc(S(=O)(=O)c5ccc(NS(=O)(=O)c6ccc(NC(C)=O)cc6)cc5)cc4)cc3)cc2)cc1 :: 6.00
O=c1c2ccccc2sn1-c1ccc(S(=O)(=O)Nc2ncccn2)cc1 :: 5.19
COc1cc(NS(=O)(=O)c2ccc(NC(=O)c3ccccc3SSc3ccccc3C(=O)Nc3ccc(S(=O)(=O)Nc4cc(OC)ncn4)cc3)cc2)ncn1 :: 5.80
NS(=O)(=O)c1ccc(CNC(=O)c2ccccc2SC(=O)CCCC[n+]2ccccc2)cc1.[Br-] :: 5.96
O=C(NS(=O)(=O)c1ccc(NC(=O)c2ccccc2SSc2ccccc2C(=O)Nc2ccc(S(=O)(=O)NC(=O)c3ccccc3)cc2)cc1)c1ccccc1 :: 5.42
O=C(Nc1ccc(S(=O)(=O)c2ccc(NS(=O)(=O)Cc3ccccc3[N+](=O)[O-])cc2)cc1)c1ccccc1SSc1ccccc1C(=O)Nc1ccc(S(=O)(=O)c2ccc(NS(=O)(=O)Cc3ccccc3[N+](=O)[O-])cc2)cc1 :: 4.91
CC(=O)NS(=O)(=O)c1ccc(NC(=O)c2ccccc2SC(=O)CCCC[n+]2ccccc2)cc1.[Br-] :: 5.21
Cc1ccnc(NS(=O)(=O)c2ccc(NC(=O)c3ccccc3SSc3ccccc3C(=O)Nc3ccc(S(=O)(=O)Nc4nccc(C)n4)cc3)cc2)n1 :: 5.38
CC(=O)Nc1cccc(S(=O)(=O)c2cccc(NC(=O)c3ccccc3SC(=O)CCCC[n+]3ccccc3)c2)c1.[Br-] :: 5.31
NS(=O)(=O)c1ccc(NC(=O)c2ccccc2SSc2ccccc2C(=O)Nc2ccc(S(N)(=O)=O)cc2)cc1 :: 6.07
O=C(Nc1ccc(S(=O)(=O)Nc2ccnn2-c2ccccc2)cc1)c1ccccc1SSc1ccccc1C(=O)Nc1ccc(S(=O)(=O)Nc2ccnn2-c2ccccc2)cc1 :: 6.48
CC(=O)Nc1cccc(S(=O)(=O)c2cccc(NC(=O)c3ccccc3SSc3ccccc3C(=O)Nc3cccc(S(=O)(=O)c4cccc(NC(C)=O)c4)c3)c2)c1 :: 6.21
NS(=O)(=O)c1ccc(CCn2sc3ccccc3c2=O)cc1 :: 5.70

---

Test system: Human immunodeficiency virus 1
METHOD: Nucleocapsid p7 protein (NCp7) zinc finger domain reactivity was measured by Trp37 fluorescence assay expressed as the average decrease in relative fluorescence units over 30 min
Assay type: functional
Label met when Activity is at or above 1 RFU min-1; anything below gets not met.

CC(=O)Nc1ccc(S(=O)(=O)c2ccc(NC(=O)c3ccccc3SC(=O)CCCC[n+]3ccccc3)cc2)cc1.[Br-] :: met
CC(=O)NS(=O)(=O)c1ccc(NC(=O)c2ccccc2SC(=O)CCCC[n+]2cccc(Cl)c2)cc1.[Br-] :: not met
NS(=O)(=O)c1ccc(CNC(=O)c2ccccc2SC(=O)CCCC[n+]2ccccc2)cc1.[Br-] :: met
CC(=O)NS(=O)(=O)c1ccc(NC(=O)c2ccccc2NC(=O)CCCC[n+]2ccccc2)cc1.[Br-] :: met
NS(=O)(=O)c1ccc(CNC(=O)c2ccccc2SSc2ccccc2C(=O)NCc2ccc(S(N)(=O)=O)cc2)cc1 :: met
O=c1c2ccccc2sn1-c1ccc(S(=O)(=O)c2ccc(NS(=O)(=O)Cc3ccccc3[N+](=O)[O-])cc2)cc1 :: met

---

Test system: Human immunodeficiency virus 1
METHOD: Effective antiviral concentration against HIV-1 infected CEM-SS cells
Format: functional, organism-based
ASSAY CONDITIONS: Human immunodeficiency virus 1, CEM-SS
QUANTITY MEASURED: EC50 (nM)

CC(=O)Nc1ccc(S(=O)(=O)c2ccc(NC(=O)c3ccccc3SSc3ccccc3C(=O)Nc3ccc(S(=O)(=O)c4ccc(NC(C)=O)cc4)cc3)cc2)cc1 :: 1500
O=C(Nc1ccc(S(=O)(=O)Nc2cnc3ccccc3n2)cc1)c1ccccc1SSc1ccccc1C(=O)Nc1ccc(S(=O)(=O)Nc2cnc3ccccc3n2)cc1 :: 720
O=C(CCCC[n+]1ccccc1)Sc1ccccc1C(=O)Nc1ccc(S(=O)(=O)c2ccc([N+](=O)[O-])cc2)cc1.[Br-] :: 5500
COc1cc(NS(=O)(=O)c2ccc(NC(=O)c3ccccc3SSc3ccccc3C(=O)Nc3ccc(S(=O)(=O)Nc4cc(OC)nc(OC)n4)cc3)cc2)nc(OC)n1 :: 2100
CC(=O)NS(=O)(=O)c1ccc(NC(=O)c2ccccc2SC(=O)CCCl)cc1 :: 4200

---

System: Human immunodeficiency virus 1
METHOD: Effective antiviral concentration against HIV-1 infected CEM-SS cells
Format: functional, organism-based
ASSAY CONDITIONS: Human immunodeficiency virus 1, CEM-SS
pEC50: −log10 of the molar value.
QUANTITY MEASURED: pEC50

O=c1c2ccccc2sn1-c1ccc(S(=O)(=O)Nc2ccc(Cl)nn2)cc1 :: 5.15
CC(=O)Nc1ccc(S(=O)(=O)Nc2ccc(S(=O)(=O)c3ccc(-n4sc5ccccc5c4=O)cc3)cc2)cc1 :: 5.02
COc1cnc(NS(=O)(=O)c2ccc(-n3sc4ccccc4c3=O)cc2)nc1 :: 4.75
Cc1noc(NS(=O)(=O)c2ccc(NC(=O)c3ccccc3SSc3ccccc3C(=O)Nc3ccc(S(=O)(=O)Nc4onc(C)c4C)cc3)cc2)c1C :: 5.60
O=C(Nc1ccc(S(=O)(=O)Nc2nccs2)cc1)c1ccccc1SSc1ccccc1C(=O)Nc1ccc(S(=O)(=O)Nc2nccs2)cc1 :: 6.00
Cc1cc(C)nc(NS(=O)(=O)c2ccc(NC(=O)c3ccccc3SSc3ccccc3C(=O)Nc3ccc(S(=O)(=O)Nc4nc(C)cc(C)n4)cc3)cc2)n1 :: 5.80
CC(=O)Nc1ccc(S(=O)(=O)c2ccc(NC(=O)c3ccccc3SC(=O)CCCC[n+]3ccccc3)cc2)cc1.[Br-] :: 5.34
CC(=O)NS(=O)(=O)c1ccc(NC(=O)c2ccccc2SC(=O)CCCCBr)cc1 :: 5.42

---

Each record here notes measured EC50.
Tested on: Human immunodeficiency virus 1
METHOD: Effective antiviral concentration against HIV-1 infected CEM-SS cells
Assay type: functional, organism-based
ASSAY CONDITIONS: Human immunodeficiency virus 1, CEM-SS
QUANTITY MEASURED: EC50 (µM)

O=C(CCCCBr)Sc1ccccc1C(=O)Nc1ccc(S(=O)(=O)c2ccc([N+](=O)[O-])cc2)cc1 :: 1.6
O=C(CCCC[n+]1ccccc1)Sc1ccccc1C(=O)Nc1ccc(S(=O)(=O)c2ccc(NS(=O)(=O)Cc3ccccc3[N+](=O)[O-])cc2)cc1.[Br-] :: 2.9
CC(=O)NS(=O)(=O)c1ccc(NC(=O)c2ccccc2SSc2ccccc2C(=O)Nc2ccc(S(=O)(=O)NC(C)=O)cc2)cc1 :: 1.5
O=C(Nc1ccc(S(=O)(=O)Nc2ccc(Cl)nn2)cc1)c1ccccc1SSc1ccccc1C(=O)Nc1ccc(S(=O)(=O)Nc2ccc(Cl)nn2)cc1 :: 2.9
Cc1nc(NS(=O)(=O)c2ccc(NC(=O)c3ccccc3SSc3ccccc3C(=O)Nc3ccc(S(=O)(=O)Nc4nc(C)c(C)o4)cc3)cc2)oc1C :: 2.4
O=c1c2ccccc2sn1-c1ccc(S(=O)(=O)Nc2cnc3ccccc3n2)cc1 :: 9.2
COc1cc(NS(=O)(=O)c2ccc(-n3sc4ccccc4c3=O)cc2)nc(OC)n1 :: 7.6
NS(=O)(=O)c1ccc(NS(=O)(=O)c2ccc(-n3sc4ccccc4c3=O)cc2)cc1 :: 6.2
COc1ccc(C(=O)Sc2ccccc2C(=O)Nc2ccc(S(=O)(=O)NC(C)=O)cc2)cc1 :: 2.8
NS(=O)(=O)c1ccc(CCNC(=O)c2ccccc2SSc2ccccc2C(=O)NCCc2ccc(S(N)(=O)=O)cc2)cc1 :: 0.41
COc1ccc(NS(=O)(=O)c2ccc(-n3sc4ccccc4c3=O)cc2)nn1 :: 22.6
CC(=O)NS(=O)(=O)c1ccc(NC(=O)c2ccccc2SC(=O)CCCCC[n+]2ccccc2)cc1.[Br-] :: 10.5
O=C(Nc1ccc(S(=O)(=O)Nc2ccccn2)cc1)c1ccccc1SSc1ccccc1C(=O)Nc1ccc(S(=O)(=O)Nc2ccccn2)cc1 :: 1.1
Cc1cc(NS(=O)(=O)c2ccc(-n3sc4ccccc4c3=O)cc2)nc(C)n1 :: 6.5
N=C(N)NS(=O)(=O)c1ccc(NC(=O)c2ccccc2SSc2ccccc2C(=O)Nc2ccc(S(=O)(=O)N=C(N)N)cc2)cc1 :: 111
O=c1c2ccccc2sn1-c1ccc(S(=O)(=O)c2ccc(NS(=O)(=O)Cc3ccccc3[N+](=O)[O-])cc2)cc1 :: 3.2
